Values compiled from ChEMBL document CHEMBL4673352.

# Test summary: Volume of distribution at steady state in mouse at 5.2 umol/kg, iv formulated as solution
# Format: ADME, organism-based
# Measurement context: in vivo, dose 5.2 µmol/kg, read-out: Vdss

Smiles record: COc1cc(F)ccc1-c1ccnc(NC(=O)[C@H]2CCC[C@@H](NC(C)=O)C2)c1
Vd / L/kg: 1.1

====

# Test summary: Thermodynamic solubility of compound in pH 4 0.1 M acetate buffer using crystalline form of sample
# Format: physicochemical
# Measurement context: read-out: Therm_solubility

Smiles record: CC(=O)N[C@@H]1CCC[C@H](C(=O)Nc2cc(-c3cnn4c3CC(C)(C)C4)c(F)cn2)C1
Units label: µg/mL
solubility thermodynamic: 57

Smiles record: CC(=O)N[C@@H]1CCC[C@H](C(=O)Nc2cc(-c3cnn4c3CC(C)(C)C4)c(Cl)cn2)C1
Units label: µg/mL
solubility thermodynamic: 50

====

# Tested on: Casein kinase I isoform gamma-2 (Homo sapiens)
# Sequence (P78368 whole entry, canonical isoform): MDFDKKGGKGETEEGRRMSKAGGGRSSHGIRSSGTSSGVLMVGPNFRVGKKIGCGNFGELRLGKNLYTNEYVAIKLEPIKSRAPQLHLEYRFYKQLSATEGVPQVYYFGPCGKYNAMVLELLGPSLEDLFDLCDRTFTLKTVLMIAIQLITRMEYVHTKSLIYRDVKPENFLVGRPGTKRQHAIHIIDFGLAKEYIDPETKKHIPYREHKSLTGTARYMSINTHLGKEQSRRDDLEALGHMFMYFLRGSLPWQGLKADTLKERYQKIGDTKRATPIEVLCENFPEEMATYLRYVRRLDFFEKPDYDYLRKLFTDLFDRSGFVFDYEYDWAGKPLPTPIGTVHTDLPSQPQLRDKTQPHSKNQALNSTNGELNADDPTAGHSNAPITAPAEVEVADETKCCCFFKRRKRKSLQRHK
# Test summary: Inhibition of CK1gamma2 (unknown origin) in presence of 5 mM ATP
pIC50: −log10 of the molar value.
Readout type: pIC50

Smiles record: CC(=O)N[C@@H]1CCC[C@H](C(=O)Nc2cc(-c3cnn4c3CC(C)(C)C4)c(Cl)cn2)C1
Quantitative result: 5.18

====

# Test summary: Half-life in cynomolgus monkey at 0.46 umol/kg, iv administered over 0.25 hrs formulated as solution in DMA/PEG400/Tween80
# Format: ADME, organism-based, Macaca fascicularis
# Measurement context: in vivo, dose 0.46 µmol/kg

Compound: CC(=O)N[C@@H]1CCC[C@H](C(=O)Nc2cc(-c3cnn4c3CC(C)(C)C4)c(Cl)cn2)C1 [ZEMIRCICLIB]
half-life: 53.4 min

====

# Test summary: Lipophilicity, log D of compound in buffer/octanol at pH 7.4 by shake flask method
# Type: physicochemical
# label = yes (1) if logD < 3 else no (0)

Compound: CC(=O)N[C@@H]1CCC[C@H](C(=O)Nc2cc(-c3cnc4n3CCC4)c(Cl)cn2)C1
Group label: yes (1)
//
Compound: CC(=O)N[C@@H]1CCC[C@H](C(=O)Nc2cc(-c3cnn4c3CC(C)(C)C4)c(C)cn2)C1
Group label: no (0)
//
Compound: CC(=O)N[C@@H]1CCC[C@H](C(=O)Nc2cc(-c3cnn4c3CCCC4)c(F)cn2)C1
Group label: yes (1)
//
Compound: CC(=O)N[C@@H]1CCC[C@H](C(=O)Nc2cc(-c3cnn4c3CC(C)(C)C4)c(C#N)cn2)C1
Group label: no (0)
//
Compound: CC(=O)N[C@@H]1CCC[C@H](C(=O)Nc2cc(-c3cnn4c3CC(C)C4)c(Cl)cn2)C1 (stereo in doubt; 28)
Group label: no (0)
//
Compound: CC(=O)N[C@@H]1CCC[C@H](C(=O)Nc2cc(-c3cnn4c3CCCC4)ccn2)C1
Group label: yes (1)
//
Compound: CC(=O)N[C@@H]1CCC[C@H](C(=O)Nc2cc(-c3nnn4c3CCCC4)c(Cl)cn2)C1
Group label: yes (1)
//
Compound: CC(=O)N[C@@H]1CCC[C@H](C(=O)Nc2cc(-c3cnn4c3NCCC4)c(Cl)cn2)C1
Group label: yes (1)
//
Compound: CC(=O)N[C@@H]1CCC[C@H](C(=O)Nc2cc(-c3cnn4c3COCC4)c(Cl)cn2)C1
Group label: yes (1)
//
Compound: CC(=O)N[C@@H]1CCC[C@H](C(=O)Nc2cc(-c3cnn4c3CCC4)c(Cl)cn2)C1
Group label: yes (1)
//
Compound: CC(=O)N[C@@H]1CCC[C@H](C(=O)Nc2cc(-c3cnn4c3CCCC4)c(Cl)cn2)C1
Group label: no (0)
//
Compound: CC(=O)N[C@@H]1CCC[C@H](C(=O)Nc2cc(-c3cnn4c3CCCCC4)c(Cl)cn2)C1
Group label: no (0)
//
Compound: CC(=O)N[C@@H]1CCC[C@H](C(=O)Nc2cc(-c3cnn4c3CN(C)CC4)c(Cl)cn2)C1
Group label: yes (1)
//
Compound: CC(=O)N[C@@H]1CCC[C@H](C(=O)Nc2cc(-c3cnn4c3CC(C)(C)C4)ccn2)C1
Group label: yes (1)
//
Compound: CC(=O)N[C@@H]1CCC[C@H](C(=O)Nc2cc(-c3cnn4c3CC(C)(C)CC4)c(F)cn2)C1
Group label: no (0)
//
Compound: CC(=O)N[C@@H]1CCC[C@H](C(=O)Nc2cc(-c3cnn4c3CC(C)(C)C4)c(F)cn2)C1
Group label: no (0)
//
Compound: CC(=O)N[C@@H]1CCC[C@H](C(=O)Nc2cc(-c3cnc(C)n3C)c(Cl)cn2)C1
Group label: yes (1)
//
Compound: CC(=O)N[C@@H]1CCC[C@H](C(=O)Nc2cc(-c3cnn4c3CC(C)(C)CC4)ccn2)C1
Group label: no (0)
//
Compound: CC(=O)N[C@@H]1CCC[C@H](C(=O)Nc2cc(-c3cnn4c3OCCC4)c(Cl)cn2)C1
Group label: yes (1)
//
Compound: CC1(C)Cc2c(-c3cc(NC(=O)[C@H]4C[C@@H](O)C4)ncc3Cl)cnn2C1
Group label: no (0)
//
Compound: CC(=O)N[C@@H]1CC[C@H](C(=O)Nc2cc(-c3cnn4c3CC(C)(C)C4)c(Cl)cn2)C1
Group label: no (0)
//
Compound: CC(=O)N[C@@H]1CCC[C@H](C(=O)Nc2cc(-c3cnc4n3CC(C)(C)C4)c(Cl)cn2)C1
Group label: no (0)
//
Compound: CC(=O)N[C@@H]1CCC[C@H](C(=O)Nc2cc(-c3cnc(C)n3C(C)C)ccn2)C1
Group label: yes (1)
//
Compound: CC(=O)N[C@@H]1CCC[C@H](C(=O)Nc2cc(-c3cnc4n3CCCC4)c(Cl)cn2)C1
Group label: yes (1)
//
Compound: CC(=O)N[C@@H]1CCC[C@H](C(=O)Nc2cc(-c3cnn4c3CC(C)(C)C4)c(Cl)cn2)C1 [ZEMIRCICLIB]
Group label: no (0)
//
Compound: CC(=O)N[C@@H]1CCC[C@H](C(=O)Nc2cc(-c3cnn4ccccc34)c(Cl)cn2)C1
Group label: no (0)
//
Compound: CC(=O)N[C@@H]1CCC[C@H](C(=O)Nc2cc(-c3cnn(C)c3C)c(Cl)cn2)C1
Group label: yes (1)
